# Tested on: Yap1 mRNA
# Experiment description: Dose-dependent inhibition of human Yap1 in SNU-449 cells (Example 9, RTS36584)
# Assay type: cell-based
# Stated conditions: 125.0 nM, free uptake, approximately 48 hours
Strand notation (5' to 3'): a small letter for the sugar, then the base; units joined by * are phosphorothioate-linked, units joined directly phosphodiester-linked; [ ] holds rarer units or linkages, { } end groups; capitals alone tell only the bases. e = 2'-O-(2-methoxyethyl) (MOE); k = constrained ethyl (cEt); [5mC] = 5-methylcytosine; d = 2'-deoxy (DNA)
In this section we review reported % UTC (Yap1 mRNA) values for a set of substances.
Readout name: % UTC (Yap1 mRNA) (% UTC)

INSERT INTO measurements (substance, test_system, data_value) VALUES
  ('1198358 (kT*kT*kT*dA*dA*dA*dG*dT*dG*dT*dA*dT*kG*eT*k[5mC]*eA; antisense) [compound 1198358]', 'Yap1 mRNA', 39),
  ('1198612 (kA*kA*kG*dT*dG*dT*dA*dT*dG*dT*d[5mC]*dA*kG*kA*kA*eG) [compound 1198612]', 'Yap1 mRNA', 12),
  ('1198616 (kT*kT*kT*dA*dA*dA*dG*dT*dG*dT*dA*dT*kG*kT*k[5mC]*eA; antisense) [compound 1198616]', 'Yap1 mRNA', 46),
  ('1198528 (kT*kA*dA*dA*dG*dT*dG*dT*dA*dT*dG*eT*k[5mC]*eA*kG*eA; antisense) [compound 1198528]', 'Yap1 mRNA', 54),
  ('1198917 (k[5mC]*kA*d[5mC]*dT*dT*dT*dT*dA*d[5mC]*dA*dT*kT*dA*kG*dG*kA; antisense) [compound 1198917]', 'Yap1 mRNA', 37),
  ('1095593 (kT*kG*dA*dG*dG*dT*dA*dT*dA*dA*d[5mC]*eT*eG*eG*kG*k[5mC]; antisense) [compound 1095593]', 'Yap1 mRNA', 44),
  ('1198352 (kT*kG*kT*dA*dT*dG*dT*d[5mC]*dA*dG*dA*dA*kG*eA*kG*eT; antisense) [compound 1198352]', 'Yap1 mRNA', 29);

###

# Test system: Yap1 mRNA
# Experiment description: Dose-dependent inhibition of human Yap1 in A-431 cells (Example 6, 5,000 cells per well, RTS4814)
# Format: cell-based
# Stated conditions: Table 53; A-431 cells, free uptake, 444 nM, approximately 48 hours, RTS4814
Strand notation (5' to 3'): a small letter for the sugar, then the base; units joined by * are phosphorothioate-linked, units joined directly phosphodiester-linked; [ ] holds rarer units or linkages, { } end groups; capitals alone tell only the bases. k = constrained ethyl (cEt); [5mC] = 5-methylcytosine; d = 2'-deoxy (DNA)
Readout name: % UTC 444 nM (% UTC)

INSERT INTO measurements (substance, readout_name, unit, data_value) VALUES
  ('715523 (kA*kT*k[5mC]*dA*dG*dT*dA*d[5mC]*dT*dG*dG*d[5mC]*d[5mC]*kT*kA*kT; antisense) [compound 715523]', '% UTC 444 nM', '% UTC', 62),
  ('715433 (kT*kG*kT*dT*d[5mC]*dT*dT*dA*dT*dG*dG*dT*dT*kT*kA*kT; antisense) [compound 715433]', '% UTC 444 nM', '% UTC', 72),
  ('715487 (kA*kT*kT*dA*d[5mC]*dT*dT*d[5mC]*dA*dT*dA*dG*d[5mC]*kT*kT*kA) [compound 715487]', '% UTC 444 nM', '% UTC', 56),
  ('715501 (kA*kA*kA*dA*dG*d[5mC]*d[5mC]*dT*dT*dA*dG*dA*dG*kT*k[5mC]*kA; antisense) [compound 715501]', '% UTC 444 nM', '% UTC', 82),
  ('715500 (kA*kA*kG*d[5mC]*d[5mC]*dT*dT*dA*dG*dA*dG*dT*d[5mC]*kA*kA*kT; antisense) [compound 715500]', '% UTC 444 nM', '% UTC', 72),
  ('715479 (kA*kA*kA*d[5mC]*d[5mC]*dA*dT*dT*dA*dT*dT*dA*d[5mC]*kT*k[5mC]*k[5mC]; antisense) [compound 715479]', '% UTC 444 nM', '% UTC', 80);

###

# Experiment description: Tolerability in Sprague-Dawley rats, body and organ weights (Example 22)
# Assay type: in vivo
# Stated conditions: male Sprague-Dawley rats, 50 mg/kg s.c. weekly for 6 weeks (7 doses), end of study
Readout name: Spleen weight (g)

INSERT INTO results (substance, data_value) VALUES
  ('1198831 (CACTTTTACATTAGGA; chemically modified gapmer, further chemistry not given here) [compound 1198831]', 2.0),
  ('1198872 (TGTATGTCAGAAGAGT; chemically modified gapmer, further chemistry not given here) [compound 1198872]', 1.3),
  ('1198728 (TATTAGAGTATGTGGC; modified gapmer, further chemistry not given here) [compound 1198728]', 1.4),
  ('1197270 (TTAAAGTGTATGTCAG; cEt gapmer with 2''-OMe nucleoside, phosphorothioate, further chemistry not given here) [compound 1197270]', 2.0),
  ('1198623 (CTAAGTAAGGTTTCCC; modified gapmer, further chemistry not given here) [compound 1198623]', 1.9),
  ('1198605 (GTAATATTGCAATCTG; modified gapmer, further chemistry not given here) [compound 1198605]', 2.1);

###

# Tested on: Yap1 mRNA
# Experiment description: Antisense inhibition of human Yap1 in A-431 cells by cEt gapmers, single dose (Example 3, RTS36584)
# Format: cell-based
# Stated conditions: Table 10; A-431 cells, 5,000 cells per well, free uptake, 2,000 nM oligonucleotide, approx. 48 hours; primer probe set RTS36584; Yap1 mRNA normalized to RIBOGREEN, percent of untreated control
Strand notation (5' to 3'): a small letter for the sugar, then the base; units joined by * are phosphorothioate-linked, units joined directly phosphodiester-linked; [ ] holds rarer units or linkages, { } end groups; capitals alone tell only the bases. k = constrained ethyl (cEt); [5mC] = 5-methylcytosine; d = 2'-deoxy (DNA)
In this section we review reported YAP1 (% UTC) values for a set of substances.
Readout name: YAP1 (% UTC)

INSERT INTO assay_data (substance, test_system, readout_name, data_value) VALUES
  ('958797 (antisense kA*k[5mC]*kG*dA*dG*d[5mC]*dA*d[5mC]*dA*dG*d[5mC]*dA*d[5mC]*k[5mC]*k[5mC]*kT) [Compound 958797]', 'Yap1 mRNA', 'YAP1 (% UTC)', 13),
  ('958572 (kA*kT*kT*dA*dT*dA*dG*dG*d[5mC]*dA*d[5mC]*dT*d[5mC]*k[5mC]*kT*kT; antisense) [Compound 958572]', 'Yap1 mRNA', 'YAP1 (% UTC)', 5),
  ('958547 (k[5mC]*kA*k[5mC]*dA*dT*dA*d[5mC]*dT*d[5mC]*dT*dA*dG*dT*kT*kA*k[5mC]; antisense) [Compound 958547]', 'Yap1 mRNA', 'YAP1 (% UTC)', 4),
  ('958762 (antisense kG*kA*kT*dT*dA*dG*dA*dG*dG*dA*d[5mC]*dT*d[5mC]*kA*kT*kT) [Compound 958762]', 'Yap1 mRNA', 'YAP1 (% UTC)', 16),
  ('958702 (antisense kT*kG*kA*dT*dG*dT*d[5mC]*dT*dT*dG*dT*d[5mC]*d[5mC]*kA*kG*kA) [Compound 958702]', 'Yap1 mRNA', 'YAP1 (% UTC)', 16),
  ('958507 (kG*kA*kG*d[5mC]*dA*dG*dA*dT*dA*dA*dT*d[5mC]*dG*kA*kG*kA; antisense) [Compound 958507]', 'Yap1 mRNA', 'YAP1 (% UTC)', 6),
  ('958812 (kT*kA*k[5mC]*dT*dA*dT*dA*dA*dG*dA*d[5mC]*dA*d[5mC]*k[5mC]*kA*kA; antisense) [Compound 958812]', 'Yap1 mRNA', 'YAP1 (% UTC)', 31),
  ('958502 (k[5mC]*kT*kA*dT*dT*dA*dA*d[5mC]*dA*dG*dA*dT*dT*k[5mC]*kA*k[5mC]; antisense) [Compound 958502]', 'Yap1 mRNA', 'YAP1 (% UTC)', 13),
  ('958742 (antisense kA*kG*k[5mC]*dA*dA*dT*dA*dT*dG*dG*dT*dA*dT*kT*kA*kG) [Compound 958742]', 'Yap1 mRNA', 'YAP1 (% UTC)', 4);
